system: Stromelysin-1 (Homo sapiens)
Sequence (P08254 100-477, species assumed): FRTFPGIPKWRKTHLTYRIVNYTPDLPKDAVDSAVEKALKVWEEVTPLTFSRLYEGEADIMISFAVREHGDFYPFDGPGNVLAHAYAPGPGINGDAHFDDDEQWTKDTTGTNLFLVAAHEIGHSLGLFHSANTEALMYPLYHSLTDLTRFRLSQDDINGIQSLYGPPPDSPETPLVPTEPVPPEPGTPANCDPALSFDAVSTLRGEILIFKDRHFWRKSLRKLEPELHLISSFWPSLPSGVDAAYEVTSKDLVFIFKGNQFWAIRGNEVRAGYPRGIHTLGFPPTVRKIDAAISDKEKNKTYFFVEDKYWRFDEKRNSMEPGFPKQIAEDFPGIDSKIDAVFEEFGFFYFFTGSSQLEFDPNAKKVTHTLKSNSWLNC
property: pKi
Please note pKi is a logarithmic value: minus log10 of concentration in mol/L. Answer with that number alone.

Dear colleague, I am looking for the recorded pKi of the following compound: `Cc1ccc(CCC[C@H](CC(=O)NO)C(=O)N[C@@H](CC2=CCCCC2)C(=O)NCCNS(=O)(=O)N2CCOCC2)cc1`
7.73

----------
Target chain: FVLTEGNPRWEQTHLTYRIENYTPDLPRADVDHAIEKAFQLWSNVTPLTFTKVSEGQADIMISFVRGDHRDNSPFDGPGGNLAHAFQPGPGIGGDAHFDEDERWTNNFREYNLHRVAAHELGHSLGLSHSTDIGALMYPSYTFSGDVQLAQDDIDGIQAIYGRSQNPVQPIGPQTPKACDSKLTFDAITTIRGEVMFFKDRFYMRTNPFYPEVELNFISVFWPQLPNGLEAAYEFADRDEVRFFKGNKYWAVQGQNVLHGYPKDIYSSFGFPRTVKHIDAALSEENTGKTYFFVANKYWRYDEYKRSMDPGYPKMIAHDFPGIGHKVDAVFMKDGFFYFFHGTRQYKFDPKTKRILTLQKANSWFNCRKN
property: pKi
Please note pKi is a logarithmic value: minus log10 of concentration in mol/L. Answer with that number alone.

Dear colleague, I am looking for the recorded pKi of the following compound: Cc1ccc(CCC[C@H](CC(=O)NO)C(=O)N[C@@H](CC2=CCCCC2)C(=O)NCCNS(=O)(=O)N2CCOCC2)cc1 [Example 5]
6.26
